I'd appreciate it if you could supply Kd values for the items below.
biological target: human TYK2 (JH2domain-pseudokinase) (Homo sapiens (Human), UniProt P29597); test: TYK2 JH2 Domain Binding Assay (KINOMEscan)
Sequence (P29597 556-888): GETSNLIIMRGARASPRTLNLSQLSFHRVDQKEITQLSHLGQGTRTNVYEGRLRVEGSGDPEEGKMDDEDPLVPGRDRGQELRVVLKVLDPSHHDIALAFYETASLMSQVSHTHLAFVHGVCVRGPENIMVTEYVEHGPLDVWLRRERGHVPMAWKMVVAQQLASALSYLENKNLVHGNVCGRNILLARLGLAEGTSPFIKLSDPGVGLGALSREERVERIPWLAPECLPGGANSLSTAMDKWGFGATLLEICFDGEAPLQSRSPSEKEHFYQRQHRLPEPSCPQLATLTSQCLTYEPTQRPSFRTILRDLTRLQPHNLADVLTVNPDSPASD

## Task Provide value of Kd for this record tested with human TYK2 (JH2domain-pseudokinase) (Homo sapiens (Human), UniProt P29597): CNc1cc(Nc2cc(Cl)cn(-c3cnn(C)c3)c2=O)nc2c(C(=O)N[C@H]3C[C@H]3F)cnn12 [I-312]
## Result < 0.2 nM

## Task Provide value of Kd for this record tested with human TYK2 (JH2domain-pseudokinase) (Homo sapiens (Human), UniProt P29597): CNc1cc(Nc2cccnc2OC)nc2c(C(=O)NC[C@H](C)CO)cnn12 [I-483]
## Result < 0.2 nM

## Task Provide value of Kd for this record tested with human TYK2 (JH2domain-pseudokinase) (Homo sapiens (Human), UniProt P29597): CNc1cc(Nc2cc(C)cnc2OC2CC2)nc2c(C(=O)NC3CC3)cnn12 [I-277]
## Result 0.2 to 1 nM

## Task Provide value of Kd for this record tested with human TYK2 (JH2domain-pseudokinase) (Homo sapiens (Human), UniProt P29597): CNc1cc(Nc2cccc(C3CCCCO3)n2)nc2c(C(=O)NC3CC3)cnn12 (stereo in doubt) [I-463]
## Result 0.2 to 1 nM

Measured values drawn from patent US10508120B2 for this set.
